- Tested on: LOC_OS04G35114-cb001;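 note: purified Escherichia coli-expressed rice kinase domain construct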
- experiment: thermal shift delta Tm vs DMSO control; higher = stronger stabilization (binding)
- stated conditions: 12.5 µM; protein concentration 2 µM
Counter-ions that a name gives are not always drawn.
recorded metric: thermal shift delta Tm (°C)
Answers are plain numbers, in °C.

Solved entries:
{"columns": ["compound", "recorded metric", "val"],
 "data": [
  ["COc1ccc(-c2cc3c(C)nc(N)nc3n([C@H]3CC[C@H](OCCO)CC3)c2=O)cn1", "thermal shift delta Tm", 0.77],
  ["CNC(=O)c1cc(Oc2ccc3nc(N[C@@H]4CCCC[C@H]4O)sc3c2)ccn1", "thermal shift delta Tm", 0.24],
  ["COc1cc(OC)cc(N(CCNC(C)C)c2ccc3ncc(-c4cnn(C)c4)nc3c2)c1", "thermal shift delta Tm", 0.74],
  ["Nc1ncccc1-c1nc2ccc(-c3ccccc3)nc2n1-c1ccc(C2(N)CCC2)cc1 [Miransertib (ARQ 092) HCl]", "thermal shift delta Tm", 0.38],
  ["CCCCNc1ncc(-c2ccc(CN3CCOCC3)cn2)c(NC2CCC(O)CC2)n1 (centres undefined)", "thermal shift delta Tm", 7.84]
]}

For every item in the list below, what is its measured thermal shift delta Tm?
1. Cc1cc(Nc2ncc(Cl)c(Nc3ccccc3S(=O)(=O)C(C)C)n2)c(OC(C)C)cc1C1CCNCC1
2. O=c1cc(N2CCOCC2)oc2c(-c3ccc4c(c3)OCCO4)csc12
3. COc1ccc(CNC(=O)Nc2ncc([N+](=O)[O-])s2)cc1
4. c1cc(-c2cnn3cc(-c4ccc(OCCN5CCCCC5)cc4)cnc23)ccn1 [Dorsomorphin 2HCl]
5. Cc1cnc(NC(=O)Nc2cc(Br)c(C)cc2OC[C@@H]2CNCCO2)cn1
6. COc1c(C)c(C(=O)c2ccc(N)c(C(=O)O)c2)n2ccccc12

Result:
[0.66, 1.85, 0.93, 9.17, 1.71, 0.79]

For every item in the list below, what is its measured thermal shift delta Tm?
1. CNCc1ccc(-c2cc(-c3nc(-c4ccc(S(=O)(=O)C(C)C)cc4)cnc3N)on2)cc1
2. NC(=O)Nc1cc(-c2cccc(F)c2)sc1C(=O)N[C@H]1CCCNC1
3. CN1CCN(c2ccc3nc(-c4c(N)c5c(F)cccc5[nH]c4=O)[nH]c3c2)CC1 [Dovitinib (TKI258) Lactate]
4. FC(F)(F)c1ccc(Nc2nc3ccc(Oc4ccnc(-c5ncc(C(F)(F)F)[nH]5)c4)cc3[nH]2)cc1

Result:
1: 4.33; 2: 2.52; 3: 10; 4: 0.2

For every item in the list below, what is its measured thermal shift delta Tm?
1. CCN1/C(=C/C(C)=O)Sc2ccc(OC)cc21
2. CC1=C(C(=O)Nc2cc3cn[nH]c3cc2F)C(c2ccc(C(F)(F)F)cc2)CC(=O)N1 (centres undefined)
3. Nc1[nH]nc2nnc(-c3c(-c4ccccc4)nn4ccccc34)cc12
4. CNc1nc(-c2ccc3c(N)n[nH]c3c2)cc(N2C[C@@H](C(=O)NC3CCCCC3)CC[C@H]2C)n1

Result:
1: 0.67; 2: 0.15; 3: 1.11; 4: 0.5

Source of measurements: the supplement of paper PMC9694430
